Hello, the source for this data is PubChem BioAssay (NCATS), in case you need it.

Experiment: Cell Viability - H-4-II-E (AID 543);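 note: cells exposed to compound for 40 hours; nearly all actives have a fitted effect of over 35% in size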
Conditions: H-4-II-E rat hepatoma viability; series mostly up to 92.2 µM
Results filed as inconclusive are left out. Activity calls are given as the source filed them. Calls come from the whole dose curve; as a rule, active = well fitted cell-killing curve with a large enough effect; inconclusive = small, poorly fitted or top-dose-only effect; inactive = flat fitted curve, though single readings scatter.
MEASUREMENT NAME: outcome

# count of solved cases: 4
COc1ccc(OC)cc1 = inactive
Nc1ccccc1S(=O)(=O)O = inactive
O=C(O)c1ccc(Cl)c(Cl)c1 = inactive
CCCC(Cl)CCCC(Cl)CCC(Cl)CCC(Cl)CCC(Cl)CCCC(Cl)CCC (stereo unspecified) = inactive

Entry under review: CCCCCCCN . Reported outcome?
inactive

Quick one: outcome for Cc1cc(C(=O)O)ccc1[N+](=O)[O-] ?
inactive

Please give the measured outcome for this molecule: Cc1cccc([N+](=O)[O-])c1C(=O)O
inactive

Reported outcome for CCCCCO : what is it?
inactive

Entry Nc1ccc([N+](=O)[O-])c(N)c1 : reported outcome = ?
inactive

Which value of outcome has been reported for CC(C)(C)OCC1CO1 (stereo unspecified) in the records?
inactive

Value lookup for outcome; key = C=Cc1ccccc1C=C
inactive

Given the entry Cc1ccc(Br)cc1 , report its measured outcome.
inactive

Entry CC=O : reported outcome = ?
inactive

Value lookup for outcome; key = C[C@@H]1CC2(OC3C[C@@]4(C)C5=CC[C@H]6C(C)(C)C(O[C@@H]7OC[C@@H](O)[C@H](O)[C@H]7O)CC[C@@]67C[C@@]57CC[C@]4(C)C31)OC(O)C1(C)OC21 (stereo partly specified)
inactive

Data request, read-out outcome, for FB(F)F
inactive

Value lookup for outcome; key = CC(=O)c1cc(C)oc1C
inactive
